System: SN12C renal
experimentDescription: NCI-60 one-dose screen, 48 h (100 = growth as untreated, 0 = no growth, -100 = all killed)
reportedConditions: 10 µM unless noted
This is part of a sample that, as a whole, favours compounds with a hit. Of some 83,000 tested, about 20% had one in any assay.
Strictly below 90% in growth: yes. Otherwise: no.

Ask: Problem: For the compound CSc1n(Cc2ccc3ccccc3c2)c(C)c[n+]1Cc1ccc2ccccc2c1 , is growth under 90%?
Reply: yes

Ask: Problem: For the compound Clc1cc(Cl)cc(Nc2ccc3cc(OCCCN4CCOCC4)ccc3n2)c1 , is growth under 90%?
Reply: yes

Ask: Problem: For the compound CC/C=C\CCC/C=C1/C(=O)C=C[C@@H]1C/C=C\CCCC(=O)O , is growth under 90%?
Reply: yes

Ask: Problem: For the compound Cc1nn(-c2ccccc2)c2nc3c(c(-c4ccc(Cl)cc4)c12)CNC1(CCSCC1)N3 , is growth under 90%?
Reply: no

Ask: Problem: For the compound O=C(CCCCCCN1CC(=O)N2[C@@H](c3ccccc3Cl)c3[nH]c4ccccc4c3C[C@H]2C1=O)NO , is growth under 90%?
Reply: yes

Ask: Problem: For the compound Cc1ccc(/C=C/c2c(C(=O)/C=C/c3ccc(C(F)(F)F)cc3)c(C)nc3ccccc23)cc1 , is growth under 90%?
Reply: yes

Ask: Problem: For the compound Cc1ccc(Cc2cnc(NC(=O)c3ccc4noc(-c5ccccc5)c4c3)s2)cc1 , is growth under 90%?
Reply: yes

Ask: Problem: For the compound Cc1c(C(=O)OC(=NC2CCCCC2)NC2CCCCC2)sc2c1c(=O)nc1c(C#N)n[nH]n12 , is growth under 90%?
Reply: no

* * *

Tested on: SR leukemia
experimentDescription: NCI-60 one-dose screen, 48 h
reportedConditions: 10 µM unless noted
Compounds without any hit were thinned out: in the full panel of roughly 83,000, 20% have a hit. Calls of active or inactive are those of the source. The calls were made as follows: active = growth percent below 10; inactive = the rest.
A correct response names exactly one class from active, inactive

Ask: Hi, sorry to bother you, what did the test record for Cc1ccc2[nH]c(=O)c3c(c2c1)OC(N)=C(C#N)C31c2cc(Br)ccc2-c2ccc(Br)cc21 ?
Reply: inactive

Ask: Hi, sorry to bother you, what did the test record for Cc1c(O)cc(-c2cnc(N/N=C\c3ccc(Cl)cc3)s2)c(O)c1C ?
Reply: inactive

Ask: Hi, sorry to bother you, what did the test record for Cn1cc(-c2csc(-c3cccc(F)c3)n2)c2cccnc21 ?
Reply: active

Ask: Hi, sorry to bother you, what did the test record for N#CC1=C(/N=C/c2ccccc2)Oc2c(ccc3ccccc23)C1c1ccccc1 (centres undefined) ?
Reply: inactive

Ask: Hi, sorry to bother you, what did the test record for CN(Cc1cnc2nc(N)nc(N)c2n1)c1ccc(C(=O)N[C@@H](CCc2nn[nH]n2)c2nn[nH]n2)cc1 ?
Reply: inactive

Ask: Hi, sorry to bother you, what did the test record for O=c1c2c3c(sc2n2c(-c4cc(-c5ccccc5)nn4-c4ccccc4)nnc2n1Cc1ccccc1)CCCC3 ?
Reply: inactive

Ask: Hi, sorry to bother you, what did the test record for CNC(=O)NCC1OC(n2cnc3c(NC(=O)Nc4ccccc4)ncnc32)C(O[Si](C)(C)C(C)(C)C)C1CC(=O)N(C)OC (centres undefined) ?
Reply: active

Ask: Hi, sorry to bother you, what did the test record for Cc1ccc(Cl)c(NS(=O)(=O)c2ccc(-c3cnc(C4CC4)o3)cc2)c1 ?
Reply: inactive

Ask: Hi, sorry to bother you, what did the test record for N#CC1=C(c2ccc(Br)cc2)NC(SCC(=O)c2ccc(Br)cc2)NC1=O (centres undefined) ?
Reply: inactive

Ask: Hi, sorry to bother you, what did the test record for COC(=O)[C@]12CC[C@@H](C)[C@H](C)[C@@H]1C1=CC[C@@H]3[C@@]4(C)C(C=O)=C[C@@](C)(COS(C)(=O)=O)C4[C@H](O)C[C@@]3(C)[C@]1(C)CC2 (some centres undefined) ?
Reply: active

Ask: Hi, sorry to bother you, what did the test record for CCOC(=O)c1c2c(n3ccc(NC(=O)OC(C)(C)C)cc13)C(=O)c1ncccc1C2=O ?
Reply: active

Ask: Hi, sorry to bother you, what did the test record for Cn1c(-c2c(N)n(Cc3cccnc3)c3nc(C#N)c(C#N)nc23)nc2ccccc21 ?
Reply: inactive

Ask: Hi, sorry to bother you, what did the test record for O=[N+]([O-])c1ccc(OCCO)cc1 ?
Reply: inactive

Ask: Hi, sorry to bother you, what did the test record for CNC(=O)c1cc(Oc2ccc3nc(Nc4ccc(Cl)c(C(F)(F)F)c4)ccc3c2)ccn1 ?
Reply: inactive

Ask: Hi, sorry to bother you, what did the test record for COc1ccc(C2=Nc3c(N)ncnc3NC(c3ccc4c(c3)OCO4)C2)cc1 (centres undefined) ?
Reply: inactive

Ask: Hi, sorry to bother you, what did the test record for O=c1ssc(Cl)c1-c1ccccc1 ?
Reply: inactive

Ask: Hi, sorry to bother you, what did the test record for CC1(C)OC2C(CO[Si](C)(C)C(C)(C)C)OC(n3c(I)c(C#C[Si](C)(C)C)c(=O)[nH]c3=O)C2O1 (centres undefined) ?
Reply: inactive

Ask: Hi, sorry to bother you, what did the test record for C[n+]1cccc(CC(=O)NO)c1 ?
Reply: inactive

Ask: Hi, sorry to bother you, what did the test record for CCN(CC)Cc1cccc(C(=O)OC)c1 ?
Reply: inactive

* * *

Test system: SNB-75 CNS
experimentDescription: NCI-60 one-dose screen, 48 h (100 = growth as untreated, 0 = no growth, -100 = all killed)
reportedConditions: 10 µM unless noted
The panel holds about 83,000 compounds, 20% with a hit somewhere; the sample as a whole holds those more often.
Exercise: state measured growth for each of the molecules provided.
Respond numerically; units are % and should not be typed.

Ask: Query (molecule): CC(C)C(NC(=O)C1(NC(=O)OCc2ccccc2)CCCC1)C(=O)O (centres undefined) ; field requested: growth
Reply: 92.3

Ask: Query (molecule): COc1cc(C2CC(=O)Nc3c2c(C)nn3-c2nc3ccccc3[nH]2)cc2c1OCC(=O)N2 (centres undefined) ; field requested: growth
Reply: 19.3

Ask: Query (molecule): N/C(=N/N=C/c1ccccc1)N/N=C\c1ccccc1 ; field requested: growth
Reply: 67.1

Ask: Query (molecule): COc1cc(/C=C/C(=O)c2c(C)nc3ccccc3c2/C=C/c2ccc(C)cc2)cc(OC)c1OC ; field requested: growth
Reply: 22.7

Ask: Query (molecule): COC(=O)[C@]12CC[C@@H](C)[C@H](C)[C@@H]1C1=CC[C@@H]3[C@@]4(C)C(C=O)=C[C@@](C)(COC(=O)c5ccco5)[C@@H]4C(=O)C[C@@]3(C)[C@]1(C)CC2 ; field requested: growth
Reply: 34.8

Ask: Query (molecule): O=C(Nc1ccccc1Cl)Oc1ccc(-c2ccccc2)cc1 ; field requested: growth
Reply: 84.2

Ask: Query (molecule): O=C(Nc1ccc(Cl)cc1)Nc1ccc(Cl)c(C(F)(F)F)c1 ; field requested: growth
Reply: 41.3

Ask: Query (molecule): S=C(c1ccc2c(c1)OCO2)N1CCN(c2ccccc2Cl)CC1 ; field requested: growth
Reply: 100

Ask: Query (molecule): C=C1C(=O)O[C@H]2[C@H]1CC/C(CNC(=O)/C=C/c1ccc(Cl)cc1Cl)=C\CC[C@@]1(C)O[C@@H]21 ; field requested: growth
Reply: 21.3

* * *

Tested on: UACC-257 melanoma
experimentDescription: NCI-60 one-dose screen, 48 h (100 = growth as untreated, 0 = no growth, -100 = all killed)
reportedConditions: 10 µM unless noted
About 83,000 compounds went through this panel and 20% of them were active in at least one assay; those are over-represented in the sample as a whole.
Strictly below 90% in growth: label 1. Otherwise: label 0.

Ask: Problem: For the compound COc1cc(/C=N/NC(=O)Cn2c(C(C)C)nc3ccccc32)ccc1O , is growth under 90%?
Reply: label 0

Ask: Problem: For the compound Cc1ccc(/C=C/c2c(C(=O)/C=C/c3ccc(Cl)cc3)c(C)nc3ccccc23)cc1 , is growth under 90%?
Reply: label 1

Ask: Problem: For the compound CC(=O)n1c(-c2ccc(Cl)cc2)nc2c(c1=O)C(c1ccc(Cl)cc1)c1sc3c(Cl)cccc3c1O2 (stereo not given) , is growth under 90%?
Reply: label 1

Ask: Problem: For the compound COc1ccc(-c2nc(SCCC(C)C)nc(N/N=C\c3cccc(Cl)c3)c2C#N)cc1 , is growth under 90%?
Reply: label 1

Ask: Problem: For the compound c1ccc(Nc2nc(-c3ccccn3)cs2)nc1 , is growth under 90%?
Reply: label 1
